tested on: RXRa homodimer (NR concentration 180 nM); assay: PBM binding z-score (relative to random genomic background probes); higher = stronger binding; sequences stand for … in GC…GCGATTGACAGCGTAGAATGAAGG

{"Construct Sequence": "CCGAGTAGGTTATGGGGCATTCAGGCAACGGTGA", "PBM binding z-score": 0.728}
{"Construct Sequence": "AATACAGGGTCATCGTAGGCCAGAATACGCACAG", "PBM binding z-score": 6.42}
{"Construct Sequence": "CGAACTAGTTCATTGACAGGACAGTGAATAGTAA", "PBM binding z-score": 0.234}
{"Construct Sequence": "CGACCAAGGTCAAGGTCAGTGAAAGAGACTCGAA", "PBM binding z-score": 6.54}
{"Construct Sequence": "CTCGAAAGGTCGGTTGAGGTGAGGATACGGATAA", "PBM binding z-score": 2.43}

====

tested on: LXRa:RXRa (NR concentration 270 nM, RXRa partner concentration 90 nM); assay: PBM binding z-score (relative to random genomic background probes); higher = stronger binding; sequences stand for … in GC…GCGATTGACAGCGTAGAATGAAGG

{"Construct Sequence": "GCGACTGGGGCATCAGCAGGTAACCATAACTTAA", "PBM binding z-score": -0.254}
{"Construct Sequence": "CCTACTGGGCCAAGGTGATTGATCAGTCAAAGCA", "PBM binding z-score": -0.732}
{"Construct Sequence": "ATATGTAGGTTACATCCGGGTCATACAGGCTATG", "PBM binding z-score": 4.15}
{"Construct Sequence": "CCTACTGGGCCAGTCAGAGGTCATTGATCATATG", "PBM binding z-score": 3.71}
{"Construct Sequence": "GCTAGCAGGCCATTTGGGTCACACAATGACGGGC", "PBM binding z-score": 0.0992}

====

test system: RARg homodimer (NR concentration 270 nM); test: PBM binding z-score (relative to random genomic background probes); higher = stronger binding; sequences stand for … in GC…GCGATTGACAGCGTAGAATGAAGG

{"Construct Sequence": "GCTATTAGTTAAAAGGGCAACCGAATGATTCTCG", "PBM binding z-score": 1.32}
{"Construct Sequence": "ACCTCTAGGTAACAAGTTCAGTGAAAGAGAGGAC", "PBM binding z-score": 1.08}
{"Construct Sequence": "CCTAGCAGGCCAATCTGGGTCACTCGAGGCTTGA", "PBM binding z-score": 1.12}

====

test system: PPARg DBDmut IVT, anti-PPARg (DBD mutation: PPARg1 K132A/R137A, NR concentration 270 nM); experiment: PBM binding z-score (relative to random genomic background probes); higher = stronger binding; sequences stand for … in GC…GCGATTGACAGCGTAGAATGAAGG
// values below are reported PBM binding z-score
Readout Name: PBM binding z-score

{"Construct Sequence": "CCTAACGGGTCACTGACAGGTTATAGCATTTGGA", "Test Target": "PPARg DBDmut IVT, anti-PPARg (DBD mutation: PPARg1 K132A/R137A, NR concentration 270 nM)", "Numeric Readout": -0.262}
{"Construct Sequence": "CTCGAAAGGTCGGTTGAGGTGAGTATGCGGATAA", "Test Target": "PPARg DBDmut IVT, anti-PPARg (DBD mutation: PPARg1 K132A/R137A, NR concentration 270 nM)", "Numeric Readout": 0.0422}
{"Construct Sequence": "ATATGTAGGTTAGCTGGGGTCACTCAGACTAGGC", "Test Target": "PPARg DBDmut IVT, anti-PPARg (DBD mutation: PPARg1 K132A/R137A, NR concentration 270 nM)", "Numeric Readout": 0.639}
{"Construct Sequence": "ACTATTAGTTGACTAAGGGCAACCGATACGACGC", "Test Target": "PPARg DBDmut IVT, anti-PPARg (DBD mutation: PPARg1 K132A/R137A, NR concentration 270 nM)", "Numeric Readout": 0.819}
{"Construct Sequence": "ATATGTAGGTTATCGGGTCATTCAGTTTGCGCAT", "Test Target": "PPARg DBDmut IVT, anti-PPARg (DBD mutation: PPARg1 K132A/R137A, NR concentration 270 nM)", "Numeric Readout": 2.54}
{"Construct Sequence": "CCTCGGAGGACAGAAGGACAGAGCTGTCCGCTTT", "Test Target": "PPARg DBDmut IVT, anti-PPARg (DBD mutation: PPARg1 K132A/R137A, NR concentration 270 nM)", "Numeric Readout": -1.82}
{"Construct Sequence": "ATCTCTAGCTAAAAGTTCAGTGAATCCCGAGGAT", "Test Target": "PPARg DBDmut IVT, anti-PPARg (DBD mutation: PPARg1 K132A/R137A, NR concentration 270 nM)", "Numeric Readout": 1.23}
{"Construct Sequence": "CCTTACGGGTCATGGTTATAGCACGGGTGGTACG", "Test Target": "PPARg DBDmut IVT, anti-PPARg (DBD mutation: PPARg1 K132A/R137A, NR concentration 270 nM)", "Numeric Readout": -0.548}
{"Construct Sequence": "CGTCCAAGGTCGAGGTCAGTGAAAGAGACTCGAA", "Test Target": "PPARg DBDmut IVT, anti-PPARg (DBD mutation: PPARg1 K132A/R137A, NR concentration 270 nM)", "Numeric Readout": -1.22}
{"Construct Sequence": "AGAACGAGGACACGCTGAGTTGATAGCAGAGTAG", "Test Target": "PPARg DBDmut IVT, anti-PPARg (DBD mutation: PPARg1 K132A/R137A, NR concentration 270 nM)", "Numeric Readout": 0.431}
{"Construct Sequence": "CCAGACAGGGGAGAAGGTAACTCAGCCTCGATTA", "Test Target": "PPARg DBDmut IVT, anti-PPARg (DBD mutation: PPARg1 K132A/R137A, NR concentration 270 nM)", "Numeric Readout": -1.2}
{"Construct Sequence": "GCCGACAGGTGAAACGCAGGTAACTCAGGGTGGC", "Test Target": "PPARg DBDmut IVT, anti-PPARg (DBD mutation: PPARg1 K132A/R137A, NR concentration 270 nM)", "Numeric Readout": -1.57}
{"Construct Sequence": "CTCGAAAGGTCGGTTGACGTGAGTATACGGATAA", "Test Target": "PPARg DBDmut IVT, anti-PPARg (DBD mutation: PPARg1 K132A/R137A, NR concentration 270 nM)", "Numeric Readout": 0.0479}
{"Construct Sequence": "TCATATAGGTAAAAGCTGAAAGTCGGTGTGGTAA", "Test Target": "PPARg DBDmut IVT, anti-PPARg (DBD mutation: PPARg1 K132A/R137A, NR concentration 270 nM)", "Numeric Readout": 0.683}
{"Construct Sequence": "CGTACTAGGTCATCCAGGACAGTGAATACATTGA", "Test Target": "PPARg DBDmut IVT, anti-PPARg (DBD mutation: PPARg1 K132A/R137A, NR concentration 270 nM)", "Numeric Readout": 1.33}
{"Construct Sequence": "ACTAGCAGGCCAAGGGTCACTCATGATTAGTCCG", "Test Target": "PPARg DBDmut IVT, anti-PPARg (DBD mutation: PPARg1 K132A/R137A, NR concentration 270 nM)", "Numeric Readout": -0.197}
{"Construct Sequence": "CCAGACAAGTGAGAAGGTAACTCAGCCTCGATTA", "Test Target": "PPARg DBDmut IVT, anti-PPARg (DBD mutation: PPARg1 K132A/R137A, NR concentration 270 nM)", "Numeric Readout": -0.316}
{"Construct Sequence": "TCTTGTAGATCAATAGAGGTTAAGATAGTGCGCT", "Test Target": "PPARg DBDmut IVT, anti-PPARg (DBD mutation: PPARg1 K132A/R137A, NR concentration 270 nM)", "Numeric Readout": 0.77}
{"Construct Sequence": "ATATGTAGGTTATCCGGTCATTCAGTTTGCGCAT", "Test Target": "PPARg DBDmut IVT, anti-PPARg (DBD mutation: PPARg1 K132A/R137A, NR concentration 270 nM)", "Numeric Readout": 1.86}
